These entries and their values trace back to patent US20240217973A1.

Assay Comment: Pharmacokinetic evaluation of compounds in mice
Format: in vivo, CD-1 mice
Condition Summary: mouse, plasma; CD-1 male mice, IV, 1.0 mg/kg (002), 1.2 mg/kg (003B)
Measurement Kind: clearance (mL/min/kg)
Give a bare numeral; the unit mL/min/kg is implied.

Can you look up the measured clearance of Nc1nccc2c1n(-c1ccc(Oc3ccccc3)cc1)c(=O)n2[C@@H]1CCCN(C(=O)/C=C/CF)C1 [Compound 002] for me?
49

* * *

Assay Comment: Pharmacokinetic evaluation of compounds in dogs
Assay type: in vivo
Condition Summary: dog, plasma; beagle dogs, PO, 2.0 mg/kg
Measurement Kind: AUC(0-inf) (µM·h)
Give a bare numeral; the unit µM·h is implied.

Can you look up the measured AUC(0-inf) of Nc1nccc2c1n(-c1ccc(Oc3ccccc3)cc1)c(=O)n2[C@@H]1CCCN(C(=O)/C=C/CF)C1 [Compound 002] for me?
2.25
